Source listed as patent EP4635958A1.

MEASUREMENT NOTES: Plasma stability test, human plasma;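 note: test compound incubated in human plasma, quantified by LC-MS/MS (positive-ion ESI, MRM) against an internal standard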
Assay type: in vitro ADME
CONDITION DESCRIPTION: Human plasma, 37°C, 60 min
Hi there, I'd appreciate the recorded Remaining rate (%) 60 min for every entry that follows.
Answers are plain numbers, in %.

Example entries begin here.
COMPOUND: [2H]C([2H])(Oc1nc2c3c(nc(-c4cc(O)cc5ccc(F)c(C#C)c45)c(F)c3n1)O[C@@H](C)[C@@H]1[C@@H]3CC[C@H](CN21)N3)C1(C([2H])([2H])N2CCC(=CF)CC2)CC1 [Example 291]
EXPERIMENTAL READOUT: Remaining rate (%) 60 min
OBSERVED MEASUREMENT: 105.44

COMPOUND: C#Cc1c(F)ccc2cc(O)cc(-c3nc4c5c(nc(OCC6(CN7CCC(=CF)CC7)CC6)nc5c3F)N3C[C@H]5CC[C@H](N5)[C@H]3[C@H](C)O4)c12 [Example 129]
EXPERIMENTAL READOUT: Remaining rate (%) 60 min
OBSERVED MEASUREMENT: 101.54

COMPOUND: C#Cc1c(F)ccc2cc(O)cc(-c3nc4c5c(nc(OCC6(CN7CCC(=C(F)F)CC7)CC6)nc5c3F)N3C[C@H]5CC[C@H](N5)[C@H]3CO4)c12 [Example 1-1]
EXPERIMENTAL READOUT: Remaining rate (%) 60 min
OBSERVED MEASUREMENT: 97.62

COMPOUND: C#Cc1c(F)ccc2cc(O)cc(-c3nc4c5c(nc(OCC6(CN7CCC(=C(F)F)CC7)CC6)nc5c3F)N3C[C@H]5CC[C@H](N5)[C@H]3[C@H](C)O4)c12 [Example 19-1]
EXPERIMENTAL READOUT: Remaining rate (%) 60 min
OBSERVED MEASUREMENT: 85.08

Give recorded Remaining rate (%) 60 min. [2H]C([2H])([2H])[C@@H]1Oc2nc(-c3cc(O)cc4ccc(F)c(C#C)c34)c(F)c3nc(OCC4(CN5CCC(=CF)CC5)CC4)nc(c23)N2C[C@H]3CC[C@H](N3)[C@@H]12 [Example 164]
93.68

###

MEASUREMENT NOTES: Pharmacokinetic determination in rats (IV and PO, plasma, LCMS/MS)
Format: in vivo, SD rats
CONDITION DESCRIPTION: rat, in vivo; PO, 30 mg/kg, male SD rats, overnight fasting, plasma; read-out: Tmax
Experimental: SD rats were used as test animals to study the pharmacokinetic behavior of the example compounds in rats (plasma) after oral administration. The example compounds of the present invention, made in house. 3 SD rats per group, male. Shanghai Jiesijie Experimental Animal Co., Ltd., animal production license number (SCXK (Shanghai) 2013-0006 N0.311620400001794). Formulation of a drug for oral administration: 10% Captisol in 50 mM citrate buffer pH 5.0. […]
EXPERIMENTAL READOUT: Tmax (h)
One number for each entry, in h.

MOLECULE: C#Cc1c(F)ccc2cc(O)cc(-c3nc4c5c(nc(OCC6(CN7CCC(=C(F)F)CC7)CC6)nc5c3F)N3C[C@H]5CC[C@H](N5)[C@H]3[C@H](CC)O4)c12 [Example 124]
EXPERIMENTAL READOUT: Tmax
UNIT OF MEASURE: h
OBSERVED MEASUREMENT: 6

MOLECULE: C#Cc1c(F)ccc2cc(O)cc(-c3nc4c5c(nc(OCC6(CN7CC8CC(=C(F)F)CC8C7)CC6)nc5c3F)N3C[C@H]5CC[C@H](N5)[C@H]3[C@H](C)O4)c12 (stereo partly drawn) [Example 133]
EXPERIMENTAL READOUT: Tmax
UNIT OF MEASURE: h
OBSERVED MEASUREMENT: 4

// below: Tmax requested for another molecule
Give recorded Tmax. C#Cc1c(F)ccc2cc(O)cc(-c3nc4c5c(nc(OCC6(CN7CCCC(=C(F)F)CC7)CC6)nc5c3F)N3C[C@H]5CC[C@H](N5)[C@H]3[C@H](C)O4)c12 [Example 132]
2
